Measured pIC50, listed per entry.
- Test system: MV4;11 cell line
- ASSAY_INFO: MV4;11 inhibition
- Format: cell-based
- SETUP_CONDITIONS: Homo sapiens, MV4-11
pIC50: −log10 of the molar value.
OBSERVATION_TYPE: pIC50

INSERT INTO measurements (molecule, val) VALUES
  ('O=C(NS(=O)(=O)c1ccc(NC[C@H]2COCCO2)c([N+](=O)[O-])c1)c1ccc(N2CCN(CC3=C(c4ccc(Cl)cc4)CC4(CCC4)CC3)CC2)c(F)c1Oc1cnc2[nH]ccc2c1', 7.35),
  ('O=C(NS(=O)(=O)c1cc([N+](=O)[O-])n(CCC2CCOCC2)c1)c1ccc(N2CCN(CC3=C(c4ccc(Cl)cc4)CC4(CCC4)CC3)CC2)cc1Oc1cnc2[nH]ccc2c1', 3.61),
  ('O=C(NS(=O)(=O)c1cc(F)c(NC[C@H]2COCCO2)c([N+](=O)[O-])c1)c1ccc(N2CCN(CC3=C(c4ccc(Cl)cc4)CC4(CCC4)CC3)CC2)cc1Oc1cnc2[nH]ccc2c1', 8.61),
  ('COCCOCCNc1ccc(S(=O)(=O)NC(=O)c2ncc(N3CCN(CC4=C(c5ccc(Cl)cc5)CC5(CCC5)CC4)CC3)cc2Oc2cnc3[nH]ccc3c2)cc1[N+](=O)[O-]', 6.94),
  ('O=C(NS(=O)(=O)C1=CC2C(=O)N(C3CCOCC3)CC2C([N+](=O)[O-])=C1)c1ccc(N2CCN(CC3=C(c4ccc(Cl)cc4)CC4(CCC4)CC3)CC2)cc1Oc1cnc2[nH]ccc2c1 (centres unmarked)', 7.26);
